System: DU145
Assay: Euclidean distance of Cell Painting phenotypic profile (signed KS, 77 features) to DMSO centroid (dimensionless distance); 5 or 10 uM (library dependent); higher = stronger phenotypic change vs DMSO (phenoactivity)
Settings: 48 h
Structures can show the parent of a compound that is named as a salt.
readout.label: Euclidean distance
Give bare numbers.

Take each entry in turn and give its Euclidean distance.
1. CC(=O)NCCCS(=O)(=O)O [Acamprosate Calcium]
2. O=S(=O)(O)CCS
3. Oc1ccc(Cl)c2cccnc12
4. C[C@H](NC(=O)[C@@H](O)c1cc(F)cc(F)c1)C(=O)N[C@@H]1C(=O)N(C)c2ccccc2-c2ccccc21
5. c1ccc(NCc2ccc(CNc3ccccn3)cc2)nc1

Result string:
1: 0.781; 2: 0.968; 3: 1.92; 4: 1.05; 5: 0.956

Hi, could you look up Euclidean distance for each item in my list?
1. COC1CCN(C(=O)c2cc(Cc3n[nH]c(=O)c4ccccc34)ccc2F)CC1
2. N[C@@H]1CCCCN(c2c(F)cc3c(=O)c(C(=O)O)cn(C4CC4)c3c2Cl)C1 [Besifloxacin HCl]
3. CCCCOc1c(C(=O)c2c(F)cc(C)cc2F)c[nH]c2nncc1-2
4. CN(C/C=C/C#CC(C)(C)C)Cc1cccc2ccccc12

Result string:
[1.32, 0.808, 1.61, 0.898]

Query string: // lookup Euclidean distance for CCc1c(C)[nH]c2c1C(=O)C(CN1CCOCC1)CC2 (stereo not given) [Molindone hydrochloride]
Result string: 0.934
